Here the recorded SI (selectivity index = CC50/IC50) is given for each entry.
- Test system: influenza A/Egypt/NRC098/2019(H1N1)

Solved cases below.
molecule	targetOrSystem	SI (selectivity index = CC50/IC50)
OC[C@@H](O)[C@@H](O)[C@H](O)[C@@H](O)CO [D-sorbitol]	influenza A/Egypt/NRC098/2019(H1N1)	>3.215
C[C@@H]1O[C@@H](Oc2cc(O)c3c(=O)c(O[C@@H]4O[C@@H](C)[C@H](O)[C@@H](O)[C@H]4O)c(-c4ccc(O)cc4)oc3c2)[C@H](O)[C@H](O)[C@H]1O [Kaempferitrin]	influenza A/Egypt/NRC098/2019(H1N1)	>209.20
CC[C@H](CC[C@@H](C)[C@H]1CC[C@H]2[C@@H]3CC=C4C[C@@H](O)CC[C@]4(C)[C@H]3CC[C@]12C)C(C)C [β-sitosterol]	influenza A/Egypt/NRC098/2019(H1N1)	10,154
C[C@@H]1O[C@@H](O[C@H]2[C@H](Oc3cc(O)c4c(c3)O[C@H](c3ccc(O)cc3)CC4=O)O[C@H](CO)[C@@H](O)[C@@H]2O)[C@H](O)[C@H](O)[C@H]1O [Naringin]	influenza A/Egypt/NRC098/2019(H1N1)	>485.43
OC[C@H]1O[C@@H](Oc2ccc(O)cc2)[C@H](O)[C@@H](O)[C@@H]1O [Arbutin]	influenza A/Egypt/NRC098/2019(H1N1)	>13.09

Now look at this entry.
Query block: Reported SI (selectivity index = CC50/IC50) for influenza A/Egypt/NRC098/2019(H1N1), given CC(=O)N[C@H]1[C@H]([C@H](O)[C@H](O)CO)OC(C(=O)O)=C[C@@H]1N=C(N)N [Zanamivir, reference compound] ?
Result block: >12,626
